Attribution: patent US5280047A

Biological target: 5-lipoxygenase (Rattus norvegicus)
Construct: supernatant fraction of Rat Basophilic Leukemia Cell Homogenate (RBL-1) serves as a 5-lipoxygenase enzyme source; endogenous in cells; host or cells: RBL-1 (rat basophilic leukemia) cells, 100,000 x g supernatant of the homogenate
Sequence (P12527 1-673): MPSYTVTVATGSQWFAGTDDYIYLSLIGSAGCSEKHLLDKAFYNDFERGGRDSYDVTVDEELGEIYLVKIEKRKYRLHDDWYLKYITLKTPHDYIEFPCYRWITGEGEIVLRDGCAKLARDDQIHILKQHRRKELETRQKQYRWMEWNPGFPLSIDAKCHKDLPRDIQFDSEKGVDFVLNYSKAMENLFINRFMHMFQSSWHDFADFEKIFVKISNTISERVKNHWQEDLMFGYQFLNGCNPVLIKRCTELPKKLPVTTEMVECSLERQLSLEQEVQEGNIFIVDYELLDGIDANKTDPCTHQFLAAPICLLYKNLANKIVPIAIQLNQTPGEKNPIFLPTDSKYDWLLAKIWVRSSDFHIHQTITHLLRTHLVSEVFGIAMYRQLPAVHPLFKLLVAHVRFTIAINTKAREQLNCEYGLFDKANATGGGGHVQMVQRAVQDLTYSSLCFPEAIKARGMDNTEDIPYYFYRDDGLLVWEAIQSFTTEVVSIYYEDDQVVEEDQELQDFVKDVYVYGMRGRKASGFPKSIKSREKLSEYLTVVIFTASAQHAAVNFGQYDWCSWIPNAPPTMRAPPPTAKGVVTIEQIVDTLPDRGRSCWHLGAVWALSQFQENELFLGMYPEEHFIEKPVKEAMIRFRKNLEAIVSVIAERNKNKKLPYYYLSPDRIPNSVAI
Assay: Inhibition of 5-lipoxygenase, in vitro (5-HETE synthesis, RBL-1 100,000 x g supernatant)
Assay type: biochemical
Details: Rat Basophilic Leukemia Cell Homogenate (RBL-1) supernatant; [1-14C]-arachidonic acid and Ca++; several values = results from additional tests; read-out: 5-Lipoxygenase Inhibition IC50
pIC50: −log10 of the molar value.
experimental-readout: pIC50

> print(dat)
                            chemical.smiles  numeric.readout
1  CCCCCCc1ccc(/C=C(/C(C)=O)C(=O)c2ccccc2)cc1             4.74

A = CCOC(=O)/C(=C\c1ccc([N+](=O)[O-])cc1)C(C)=O
B = CCCCCCCCc1ccc(C=C(C(C)=O)C(C)=O)cc1
In: Could you check which of A and B has a smaller value for pIC50? Mark your answer with the label of the selected entry.
Out: A
(A: 4.11, B: 5.36)
